- target or system: HA-GST-Rheb (GTP-γ-S loaded) activating mTORC1 (Homo sapiens (Human))
- Sequence (Q15382 1-181): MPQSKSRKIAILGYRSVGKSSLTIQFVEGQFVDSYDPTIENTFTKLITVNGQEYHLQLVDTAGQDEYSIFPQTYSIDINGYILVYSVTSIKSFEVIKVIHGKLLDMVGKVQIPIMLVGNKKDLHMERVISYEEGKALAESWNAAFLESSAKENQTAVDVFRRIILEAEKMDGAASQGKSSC
- experimental protocol: Rheb-dependent in vitro kinase assay (Rheb-IVK; LanthaScreen or Western readout)
- Format: biochemical
- experimental conditions: LanthaScreen variation, Terbium labeled T46p4E-BP1 specific antibody; read-out: IC50 in the Rheb-IVK
pIC50: −log10 of the molar value.
readout label: pIC50

>  <compound>
OCc1cc2c(Oc3ccccc3)c(Cl)ccc2[nH]1

>  <target or system>
HA-GST-Rheb (GTP-γ-S loaded) activating mTORC1 (Homo sapiens (Human))

>  <data value>
~4.08

$$$$
>  <compound>
CN(C)C(=O)c1ccc(Cn2c(C(=O)O)cc3c(Br)cc(Sc4ccc(Cl)c(Cl)c4)cc32)cc1

>  <target or system>
HA-GST-Rheb (GTP-γ-S loaded) activating mTORC1 (Homo sapiens (Human))

>  <data value>
~5.68

$$$$
>  <compound>
CCC(=O)N1CCN(c2ccc(-n3c(=O)ccc4cnc5ccc(-c6cnc7ccccc7c6)cc5c43)cc2C(F)(F)F)CC1 [Torin-1, reference compound]

>  <target or system>
HA-GST-Rheb (GTP-γ-S loaded) activating mTORC1 (Homo sapiens (Human))

>  <data value>
~8.70

$$$$

The reported measurements were obtained from patent US11339144B2.
